- ASSAYED_TARGET: Rap guanine nucleotide exchange factor 4 (Homo sapiens) (UniProt Q8WZA2)
- Sequence (Q8WZA2 whole entry, looked up): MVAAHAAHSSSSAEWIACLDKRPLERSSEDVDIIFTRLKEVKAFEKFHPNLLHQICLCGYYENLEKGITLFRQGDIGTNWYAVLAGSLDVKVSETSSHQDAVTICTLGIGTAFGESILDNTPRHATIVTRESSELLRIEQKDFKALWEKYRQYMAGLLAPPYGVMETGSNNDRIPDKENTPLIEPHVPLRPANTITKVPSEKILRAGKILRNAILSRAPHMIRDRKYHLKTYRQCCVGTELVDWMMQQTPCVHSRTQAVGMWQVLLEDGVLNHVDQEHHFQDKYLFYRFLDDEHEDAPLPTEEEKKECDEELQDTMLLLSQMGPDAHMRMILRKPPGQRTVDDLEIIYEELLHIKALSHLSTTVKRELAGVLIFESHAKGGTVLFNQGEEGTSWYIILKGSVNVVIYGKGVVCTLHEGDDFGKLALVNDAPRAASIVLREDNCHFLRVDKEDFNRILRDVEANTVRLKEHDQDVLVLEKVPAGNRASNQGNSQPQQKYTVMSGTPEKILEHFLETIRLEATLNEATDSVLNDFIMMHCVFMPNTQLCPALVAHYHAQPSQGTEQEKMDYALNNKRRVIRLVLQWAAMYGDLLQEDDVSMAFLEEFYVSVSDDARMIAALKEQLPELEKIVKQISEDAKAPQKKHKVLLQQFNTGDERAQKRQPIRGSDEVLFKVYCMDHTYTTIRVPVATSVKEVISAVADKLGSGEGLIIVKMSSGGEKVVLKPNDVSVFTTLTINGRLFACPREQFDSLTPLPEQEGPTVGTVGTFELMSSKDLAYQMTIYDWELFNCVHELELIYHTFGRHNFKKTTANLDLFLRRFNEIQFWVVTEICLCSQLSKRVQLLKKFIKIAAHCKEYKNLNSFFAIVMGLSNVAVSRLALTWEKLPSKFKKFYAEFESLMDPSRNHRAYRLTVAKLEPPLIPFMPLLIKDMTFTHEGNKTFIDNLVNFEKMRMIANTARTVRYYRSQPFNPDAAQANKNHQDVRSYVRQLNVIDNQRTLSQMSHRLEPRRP
- EXPERIMENT: Confirmatory qHTS for antagonist of cAMP-regulated guanine nucleotide exchange factor 4 (EPAC2) (AID 1645885); further: nearly all actives have a fitted effect of over 25% in size
- EXPERIMENTAL_PARAMETERS: EPAC2 Rap1B-BODIPY-GDP exchange fluorescence, biochemical; series mostly up to 12.7 µM
Records with an inconclusive call do not appear. Calls of active or inactive are those of the source. The call rests on the fitted dose curve; in most records, active means well fitted inhibition curve with a large enough effect; inconclusive means small, poorly fitted or top-dose-only effect; inactive means no such curve, though single readings can be large or run the other way.
RESULT_TYPE: outcome

# MOLECULE, ASSAYED_TARGET, OBSERVED
data = [
    ("CC(CCc1ccccc1)NC(=O)C1CCN(C(=O)c2sccc2-n2cccc2)CC1 (stereo not drawn)", "Rap guanine nucleotide exchange factor 4 (Homo sapiens) (UniProt Q8WZA2)", "inactive"),
    ("NNC(=O)c1cccc(COCC(F)(F)C(F)F)c1", "Rap guanine nucleotide exchange factor 4 (Homo sapiens) (UniProt Q8WZA2)", "inactive"),
    ("COc1ccc(OC)c2c(/C=C/c3c(C)[nH]c4ccccc34)ccnc12", "Rap guanine nucleotide exchange factor 4 (Homo sapiens) (UniProt Q8WZA2)", "inactive"),
]
